The reported numbers originate from patent US12582657B2.

- Test system: ERK1/2 phosphorylation in NCI-H358 cells
- ASSAY OVERVIEW: Basal ERK1/2 phosphorylation assay (MSD)
- Type: cell-based
- MEASUREMENT SETUP: Homo sapiens; NCI-H358, lung, KRAS p.G12C heterozygous; 2-hour treatment; read-out: Basal p-ERK1/2 IC50
EXPERIMENTAL READOUT: IC50 (nM)
One number for each entry, in nM.

INPUT: Form field: reported IC50 of C=CC(=O)N1CCN(c2nc(=O)n(-c3c(C)ccnc3C(C)C)c3nc(-c4c(O)cccc4F)c(F)cc23)[C@@H](C)C1 (atropisomer, axis not shown) [AMG 510]
OUTPUT: 35

* * *

- Tested on: ERK1/2 phosphorylation in SW1463 cells
- ASSAY OVERVIEW: Basal ERK1/2 phosphorylation assay (MSD)
- Format: cell-based
- MEASUREMENT SETUP: Homo sapiens; SW1463, colon, KRAS p.G12C homozygous; 2-hour treatment
EXPERIMENTAL READOUT: pIC50
Answers are plain numbers, as −log10 of the molar value.

INPUT: Looking for the measured pIC50 of C=CC(=O)N1CCN(c2nc(=O)n(-c3c(C)ccnc3C(C)C)c3nc(-c4c(O)cccc4F)c(F)cc23)[C@@H](C)C1 (atropisomer, axis not shown) [AMG 510] , can you help?
OUTPUT: 7.48

* * *

- Tested on: AsPC-1 cells
- ASSAY OVERVIEW: Cell viability assay (CellTiter-Glo, adherent)
- Assay type: cell-based
- MEASUREMENT SETUP: Homo sapiens, ASPC1, AsPC-1, pancreas, KRAS p.G12D homozygous, 72-hour treatment
pIC50: −log10 of the molar value.
EXPERIMENTAL READOUT: pIC50

INPUT: Can you look up the measured pIC50 of C=CC(=O)N1CCN(c2nc(=O)n(-c3c(C)ccnc3C(C)C)c3nc(-c4c(O)cccc4F)c(F)cc23)[C@@H](C)C1 (atropisomer, axis not shown) for me?
OUTPUT: < 5.12

* * *

- Tested on: ERK1/2 phosphorylation in NCI-H1322 cells
- ASSAY OVERVIEW: Basal ERK1/2 phosphorylation assay (MSD)
- Type: cell-based
- MEASUREMENT SETUP: Homo sapiens, 2 h, read-out: Basal p-ERK1/2 IC50
EXPERIMENTAL READOUT: IC50

INPUT: Please report the recorded IC50 for C=CC(=O)N1CCN(c2nc(=O)n(-c3c(C)ccnc3C(C)C)c3nc(-c4c(O)cccc4F)c(F)cc23)[C@@H](C)C1 (atropisomer, axis not shown) .
OUTPUT: > 10 µM

* * *

- Test system: NCI-H2030 cells
- ASSAY OVERVIEW: Cell viability assay (CellTiter-Glo, adherent)
- Assay type: cell-based
- MEASUREMENT SETUP: Homo sapiens, NCI-H2030, lung, KRAS p.G12C homozygous, 72-hour treatment
EXPERIMENTAL READOUT: IC50 (nM)
One number for each entry, in nM.

INPUT: What value of measured IC50 is listed for C=CC(=O)N1CCN(c2nc(=O)n(-c3c(C)ccnc3C(C)C)c3nc(-c4c(O)cccc4F)c(F)cc23)[C@@H](C)C1 (atropisomer, axis not shown) [AMG 510] ?
OUTPUT: 6

* * *

- System: ERK1/2 phosphorylation in NCI-H2030 cells
- ASSAY OVERVIEW: Basal ERK1/2 phosphorylation assay (MSD)
- Type: cell-based
- MEASUREMENT SETUP: Homo sapiens; NCI-H2030, lung, KRAS p.G12C homozygous; 2-hour treatment
EXPERIMENTAL READOUT: IC50 (nM)
Give bare numbers, in nM.

INPUT: Dear colleague, I am looking for the recorded IC50 of the following compound: C=CC(=O)N1CCN(c2nc(=O)n(-c3c(C)ccnc3C(C)C)c3nc(-c4c(O)cccc4F)c(F)cc23)[C@@H](C)C1 (atropisomer, axis not shown)
OUTPUT: 40

* * *

- System: HCC-827 cells
- ASSAY OVERVIEW: Cell viability assay (CellTiter-Glo, adherent)
- Format: cell-based
- MEASUREMENT SETUP: Homo sapiens, HCC827, HCC-827, lung, KRAS WT EGFR p.E746_A750del, 72-hour treatment
pIC50: −log10 of the molar value.
EXPERIMENTAL READOUT: pIC50

INPUT: Look up pIC50: C=CC(=O)N1CCN(c2nc(=O)n(-c3c(C)ccnc3C(C)C)c3nc(-c4c(O)cccc4F)c(F)cc23)[C@@H](C)C1 (atropisomer, axis not shown) [AMG 510]
OUTPUT: < 5.12

* * *

- System: ERK1/2 phosphorylation in MIA PaCa-2 cells
- ASSAY OVERVIEW: Basal ERK1/2 phosphorylation assay (MSD)
- Format: cell-based
- MEASUREMENT SETUP: Homo sapiens; 2-hour treatment; second of two KRASp.G12C cell lines (FIG. 40E: MIA PaCa-2); read-out: p-ERK IC50
EXPERIMENTAL READOUT: IC50

INPUT: Reported IC50 for C=CC(=O)N1CCN(c2nc(=O)n(-c3c(C)ccnc3C(C)C)c3nc(-c4c(O)cccc4F)c(F)cc23)[C@@H](C)C1 (atropisomer, axis not shown) : what is it?
OUTPUT: ~30 nM

* * *

- Tested on: ERK1/2 phosphorylation in SW1573 cells
- ASSAY OVERVIEW: Basal ERK1/2 phosphorylation assay (MSD)
- Format: cell-based
- MEASUREMENT SETUP: Homo sapiens; SW1573, lung, KRAS p.G12C homozygous; 2-hour treatment
EXPERIMENTAL READOUT: IC50 (nM)
Give bare numbers, in nM.

INPUT: Given C=CC(=O)N1CCN(c2nc(=O)n(-c3c(C)ccnc3C(C)C)c3nc(-c4c(O)cccc4F)c(F)cc23)[C@@H](C)C1 (atropisomer, axis not shown) , state its recorded IC50.
OUTPUT: 27

* * *

- Test system: ERK1/2 phosphorylation in COLO-205 cells
- ASSAY OVERVIEW: Basal ERK1/2 phosphorylation assay (MSD)
- Format: cell-based
- MEASUREMENT SETUP: Homo sapiens; COLO-205, colon, KRAS WT BRAF p.V600E; 2-hour treatment
EXPERIMENTAL READOUT: IC50

INPUT: Param item = C=CC(=O)N1CCN(c2nc(=O)n(-c3c(C)ccnc3C(C)C)c3nc(-c4c(O)cccc4F)c(F)cc23)[C@@H](C)C1 (atropisomer, axis not shown) ; retrieve measured IC50.
OUTPUT: > 10 µM

* * *

- System: SW1463 cells
- ASSAY OVERVIEW: Cell viability assay (CellTiter-Glo, adherent)
- Format: cell-based
- MEASUREMENT SETUP: Homo sapiens, SW1463, colon, KRAS p.G12C homozygous, 72-hour treatment
- Procedure: For adherent viability assays, 0.5-1.0E+03 cells were seeded per well in 384-well plates (or 2.5-4.0E+04 cells per well in 96-well plates) and incubated at 37° C., 5% CO2, o/n. […] Cell viability was measured using a CellTiter-Glo® Luminescent Cell Viability Assay kit (Promega) according to the manufacturer's protocol. The luminescence signal of treated samples was normalized to DMSO control.
EXPERIMENTAL READOUT: pIC50
Give bare numbers, as −log10 of the molar value.

INPUT: Item C=CC(=O)N1CCN(c2nc(=O)n(-c3c(C)ccnc3C(C)C)c3nc(-c4c(O)cccc4F)c(F)cc23)[C@@H](C)C1 (atropisomer, axis not shown) with SW1463 cells - pIC50?
OUTPUT: 7.82

* * *

- Test system: ERK1/2 phosphorylation in LS 174T cells
- ASSAY OVERVIEW: Basal ERK1/2 phosphorylation assay (MSD)
- Type: cell-based
- MEASUREMENT SETUP: Homo sapiens, LS174T, colon, KRAS p.G12D heterozygous, 2-hour treatment
EXPERIMENTAL READOUT: IC50

INPUT: Fill in: IC50 of C=CC(=O)N1CCN(c2nc(=O)n(-c3c(C)ccnc3C(C)C)c3nc(-c4c(O)cccc4F)c(F)cc23)[C@@H](C)C1 (atropisomer, axis not shown) [AMG 510] is ___
OUTPUT: > 10 µM
